# System: ragweed
# TEST DETAILS: Test C postemergence
# Format: in vivo, Ambrosia artemisiifolia
# ASSAY SETUP: 125 g ai/ha, postemergence, 10 days; 0 to 100 scale, 0 no effect, 100 complete control
RECORDED ENDPOINT: Plant response rating, Ragweed
One number for each entry.

Here are 2 compounds together with their reported answers.
1. CCn1cnc(-c2cccc(C(=O)N3C[C@H](C)Oc4c(Cl)cccc43)c2)n1    0
2. COC[C@H]1CN(C(=O)c2cccc(-n3cnc(C(C)(C)O)n3)c2)c2cccc(Cl)c2O1    70

For each entry beneath this line, provide reported Plant response rating, Ragweed.
1. C[C@H]1CN(C(=O)c2cccc(-n3cnc(C(C)(C)O)n3)c2)c2cccc(Cl)c2O1
2. COc1ccc(-n2cnc(C(C)C)n2)cc1C(=O)N1C[C@H](C)Oc2c(F)cccc21

Result block:
[50, 70]

----------
# System: blackgrass
# TEST DETAILS: Test C postemergence
# Type: in vivo, Alopecurus myosuroides
# ASSAY SETUP: 125 g ai/ha, postemergence, 10 days; 0 to 100 scale, 0 no effect, 100 complete control
Mark each entry yes if its Plant response rating, Blackgrass sits below 80, and no for all others.

Query block: Given the entry `C[C@H]1CN(C(=O)c2cccc(-n3cnc(C(C)(C)O)n3)c2)c2cccc(Cl)c2O1` , would its reported Plant response rating, Blackgrass be below 80?
Result block: no

Query block: How about this molecule: CC(C)c1ncn(-c2ccc([S+]([O-])C(F)(F)F)c(C(=O)N3C[C@H](C)Oc4c(Cl)cccc43)c2)n1 (stereo partly shown)
Result block: yes

Query block: How about this molecule: `COC[C@H]1CN(C(=O)c2cc(-n3cnc(C(C)(C)O)n3)ccc2C)c2cccc(Cl)c2O1`
Result block: yes

Query block: How about this molecule: `COc1c(C)cc(-n2cnc(C(C)C)n2)cc1C(=O)N1C[C@H](C)Oc2c(Cl)cccc21`
Result block: yes

Query block: How about this molecule: `COc1ccc(-n2cnc(C(C)C)n2)cc1C(=O)N1C[C@H](C)Oc2c(C)cccc21`
Result block: no

Query block: How about this molecule: `Cc1ccc(-n2cnc(C3(O)CCCC3)n2)cc1C(=O)N1C[C@H](C)Oc2c(Cl)cccc21`
Result block: yes

Query block: How about this molecule: `COC[C@H]1CN(C(=O)c2cc(-n3cnc(C4CCC4)n3)ccc2OC)c2cccc(Cl)c2O1`
Result block: yes

Query block: How about this molecule: CC(C)c1ncn(-c2cccc(C(=O)N3CC(C(F)(F)F)Oc4c(Cl)cccc43)c2)n1 (single isomer, unassigned)
Result block: yes

Query block: How about this molecule: `COc1cc(C(=O)N2C[C@H](C)Oc3c(Cl)cccc32)cc(-n2cnc(C3CC3)n2)c1`
Result block: yes

Query block: How about this molecule: `Cc1ccc(-n2cnc(C(C)(F)F)n2)cc1C(=O)N1C[C@H](C)Oc2c(Cl)cccc21`
Result block: no

Query block: How about this molecule: CCc1ncn(-c2ccc(C)c(C(=O)N3CC(C(F)(F)F)Oc4c(Cl)cccc43)c2)n1 (single isomer, unassigned)
Result block: no

Query block: How about this molecule: `CCn1cnc(-c2cccc(C(=O)N3C[C@H](C)Oc4c(C)cccc43)c2)n1`
Result block: yes

----------
# Tested on: barnyardgrass
# TEST DETAILS: Test A preemergence
# Type: in vivo, Echinochloa crusgalli
# ASSAY SETUP: 125 g ai/ha, visual injury after 10 days, 0 to 100 scale, 0 is no effect, 100 is complete control
RECORDED ENDPOINT: Plant response rating, Barnyardgrass

1. CCC1CN(C(=O)c2cccc(-n3cncn3)c2)c2cccc(Cl)c2O1 (racemic)    0
2. Cc1nc(C)n(-c2cccc(C(=O)N3C[C@H](C)Oc4c(Cl)cccc43)c2)n1    30
3. CC(C)c1ncn(-c2cc3c(c(C(=O)N4C[C@H](C)Oc5c(Cl)cccc54)c2)OCC3)n1    40

For each entry beneath this line, provide reported Plant response rating, Barnyardgrass.
1. C[C@H]1CN(C(=O)c2cc(C3CC3)cc(-n3cncn3)c2)c2cccc(Cl)c2O1
2. CC(C)c1ncn(-c2ccc(OC(F)(F)F)c(C(=O)N3C[C@H](C)Oc4c(Cl)cccc43)c2)n1

Result block:
1. 30
2. 90

Query block: Which Plant response rating, Barnyardgrass value is on record for `CC(C)c1ncn(-c2ccc(C#N)c(C(=O)N3C[C@H](C)Oc4c(Cl)cccc43)c2)n1` ?
Result block: 90
